Origin of values: ChEMBL document CHEMBL2417411

# Assay protocol: cells
# Test conditions: Homo sapiens, QGY7701, 48 h
# Description: Cytotoxicity against human QGY7701 cells after 48 hrs by MTT assay
Quantity: IC50 (µM)
All answers are understood in µM, so give the number only.

Examples with their reported IC50 follow.
Molecule	Unit label	Experimental value
COc1ccc(C(=O)c2ccc(=O)n(-c3ccccc3C)c2)c(OCc2cn(Cc3ccccc3C)nn2)c1	µM	4.63
COc1ccc(C(=O)c2ccc(=O)n(-c3ccccc3C)c2)c(OCc2cn(Cc3cccc(O[N+](=O)[O-])c3)nn2)c1	µM	3.01
COc1ccc(C(=O)c2ccc(=O)n(-c3ccccc3C)c2)c(OCc2cn(Cc3ccc(C#N)cc3)nn2)c1	µM	2.87
COc1ccc(C(=O)c2ccc(=O)n(-c3ccccc3C)c2)c(OC(=O)Cc2ccccc2Cl)c1	µM	6.05

Input line: Looking for the measured IC50 of COc1ccc(C(=O)C2=CC(c3ccccc3C)C(=O)C=C2)c(OCc2cn(Cc3ccc(C(C)(C)C)cc3)nn2)c1 (stereo unspecified) , can you help?
Output line: 3.39

====

# Assay protocol: cells
# Test conditions: Homo sapiens, QGY7701, 48 h
Quantity: IC50

Examples with their reported IC50 follow.
Molecule	IC50
C#CCOc1cc(OC)ccc1C(=O)c1ccc(=O)n(-c2ccccc2C)c1	9.08 µM
CCCCC(CC)C(=O)Oc1cc(OC)ccc1C(=O)c1ccc(=O)n(-c2ccccc2C)c1 (centres undefined)	> 30 µM
COc1ccc(C(=O)c2ccc(=O)n(-c3ccccc3C)c2)c(OC(=O)Cc2ccc(Cl)cc2)c1	5.68 µM

Input line: Looking for the measured IC50 of "COc1ccc(C(=O)c2ccc(=O)n(-c3ccccc3C)c2)c(OC(=O)c2cc([N+](=O)[O-])cc([N+](=O)[O-])c2)c1" , can you help?
Output line: > 30 µM

Input line: Looking for the measured IC50 of "COc1ccc(C(=O)c2ccc(=O)n(-c3ccccc3C)c2)c(OCc2cn(Cc3ccc(Cl)cc3)nn2)c1" , can you help?
Output line: > 30 µM

Input line: Looking for the measured IC50 of "COc1ccc(C(=O)c2ccc(=O)n(-c3ccccc3C)c2)c(OC(=O)c2ccc(Cl)cc2)c1" , can you help?
Output line: > 30 µM

Input line: Looking for the measured IC50 of "COc1ccc(C(=O)c2ccc(=O)n(-c3ccccc3C)c2)c(OCc2cn(Cc3ccccc3Br)nn2)c1" , can you help?
Output line: > 30 µM

Input line: Looking for the measured IC50 of "COc1ccc(C(=O)c2ccc(=O)n(-c3ccccc3C)c2)c(OCc2cn(Cc3cccc(F)c3)nn2)c1" , can you help?
Output line: > 30 µM

Input line: Looking for the measured IC50 of "COc1ccc(C(=O)c2ccc(=O)n(-c3ccccc3C)c2)c(OC(C)=O)c1" , can you help?
Output line: > 30 µM

====

# Assay protocol: physchem
# Test conditions: octanol/water
# Description: Lipophilicity, log P of the compound
Listed below: logP values for each entry.
Field format: numeric only.

Examples with their reported logP follow.
Smiles	Experimental value
COc1ccc(C(=O)c2ccc(=O)n(-c3ccccc3C)c2)c(OCc2cn(Cc3ccccc3Cl)nn2)c1	4.05
COc1ccc(C(=O)c2ccc(=O)n(-c3ccccc3C)c2)c(OCc2cn(Cc3ccccc3)nn2)c1	3.88
COc1ccc(C(=O)c2ccc(=O)n(-c3ccccc3C)c2)c(OCc2cn(Cc3cccc(F)c3)nn2)c1	3.59
COc1ccc(C(=O)c2ccc(=O)n(-c3ccccc3C)c2)c(OC(=O)c2ccc(C)cc2)c1	4.32
COc1ccc(C(=O)c2ccc(=O)n(-c3ccccc3C)c2)c(OCc2cn(Cc3cccc(C)c3)nn2)c1	4.1
COc1ccc(C(=O)c2ccc(=O)n(-c3ccccc3C)c2)c(OC(=O)c2cc([N+](=O)[O-])cc([N+](=O)[O-])c2)c1	3.88
COc1ccc(C(=O)c2ccc(=O)n(-c3ccccc3C)c2)c(OCc2cn(Cc3ccc(C)cc3)nn2)c1	4.1
COc1ccc(C(=O)c2ccc(=O)n(-c3ccccc3C)c2)c(OCc2cn(Cc3ccc(C#N)cc3)nn2)c1	3.6
COc1ccc(C(=O)c2ccc(=O)n(-c3ccccc3C)c2)c(OC(=O)c2ccc(F)cc2)c1	3.81
COc1ccc(C(=O)c2ccc(=O)n(-c3ccccc3C)c2)c(OCc2cn(Cc3ccc(Cl)cc3)nn2)c1	4.05

Input line: Looking for the measured logP of "CCCOC(=O)Oc1cc(OC)ccc1C(=O)c1ccc(=O)n(-c2ccccc2C)c1" , can you help?
Output line: 3.31

Input line: Looking for the measured logP of "COc1ccc(C(=O)c2ccc(=O)n(-c3ccccc3C)c2)c(OCc2cn(Cc3ccc(Br)cc3)nn2)c1" , can you help?
Output line: 4.23

Input line: Looking for the measured logP of "COc1ccc(C(=O)c2ccc(=O)n(-c3ccccc3C)c2)c(OC(=O)Cc2ccccc2Cl)c1" , can you help?
Output line: 4.4

Input line: Looking for the measured logP of "COc1ccc(C(=O)c2ccc(=O)n(-c3ccccc3C)c2)c(OCc2cn(Cc3ccccc3F)nn2)c1" , can you help?
Output line: 3.59

Input line: Looking for the measured logP of "COc1ccc(C(=O)c2ccc(=O)n(-c3ccccc3C)c2)c(OC(=O)c2ccccc2)c1" , can you help?
Output line: 4.09
